Every entry's value here was drawn from patent US7884199B2.

- targetDesc: wild type HCV NS3 serine protease domain, genotype 1b (Hepatitis C virus genotype 1b)
pKi: −log10 of the molar value.

molecule: CCC[C@H](NC(=O)C1[C@H]2CCC[C@H]2CN1C(=O)[C@@H](NC(=O)[C@@H](NC(=O)c1cnccn1)C1CCCCC1)C(C)(C)C)C(=O)C(=O)NC1CC1 (stereo partly shown)
pKi: 7.00

----------
- System: A156S HCV replicon cells
- assayMethodText: HCV replicon cell assay, 48-hour
- Type: cell-based, Hepatitis C virus
- studyConditions: read-out: Replicon IC50, 48-hour assay
pIC50: −log10 of the molar value.
metric: pIC50

compound: CCC[C@H](NC(=O)C1[C@H]2CCC[C@H]2CN1C(=O)[C@@H](NC(=O)[C@@H](NC(=O)c1cnccn1)C1CCCCC1)C(C)(C)C)C(=O)C(=O)NC1CC1 (stereo partly shown) [VX-950]
targetDesc: A156S HCV replicon cells
measuredResult: 5.29
